STUDY SYSTEM: HLA-B*08:01
ASSAY METHOD TEXT: IEDB peptide-MHC binding, purified MHC/competitive/fluorescence; filed as Kd, often an IC50 or EC50 that approximates it; bounds were set here for any values at or beyond the usual limits of such assays
CONDITION: source organism: Escherichia coli 536
MEASURED ENDPOINT: pKd
Entry type: numeric. Quantity: pKd, the -log10 of concentration in molar units.

-- ask I have this sequence here, "HPYKIPATV" , and I need its recorded pKd.
-- reply 6.40

---

STUDY SYSTEM: HLA-A*02:06
ASSAY METHOD TEXT: IEDB peptide-MHC binding, purified MHC/competitive/fluorescence; filed as Kd, often an IC50 or EC50 that approximates it; bounds were set here for any values at or beyond the usual limits of such assays
CONDITION: source organism: Encephalitozoon cuniculi GB-M1
pKd: −log10 of the molar value.
MEASURED ENDPOINT: pKd

-- ask Please report the recorded pKd for "GVYGGLCLA" .
-- reply ≥ 9.00

---

STUDY SYSTEM: HLA-B*15:01
ASSAY METHOD TEXT: IEDB peptide-MHC binding, purified MHC/direct/fluorescence; filed as Kd, often an IC50 or EC50 that approximates it; bounds were set here for any values at or beyond the usual limits of such assays
CONDITION: source organism: Bacillus anthracis str. Sterne
MEASURED ENDPOINT: Kd

-- ask // Kd lookup, key: "TTYVYTLPV"
-- reply ≥ 20 µM

---

STUDY SYSTEM: HLA-B*40:02
ASSAY METHOD TEXT: IEDB peptide-MHC binding, purified MHC/competitive/radioactivity; filed as Kd, often an IC50 or EC50 that approximates it; bounds were set here for any values at or beyond the usual limits of such assays
CONDITION: source organism: SARS coronavirus Tor2
Field: label. Allowed values: Yes (Kd < 100 nM) or No (Kd >= 100 nM).

Worked examples, 5 sequences total:
SEQUENCE STRING: SEAFEYYHTL
DISCRETE LABEL: Yes
--
SEQUENCE STRING: SETLLPLTQY
DISCRETE LABEL: No
--
SEQUENCE STRING: FEEAALCTFL
DISCRETE LABEL: Yes
--
SEQUENCE STRING: REFVFKNKDG
DISCRETE LABEL: No
--
SEQUENCE STRING: SEVGICLST
DISCRETE LABEL: Yes

-- ask Criterion: Kd strictly below 100 nM. Is it met by "QEYADVFHLY" ?
-- reply No

-- ask Is Kd strictly under 100 nM for the entry "SFYYIWKSYV" ?
-- reply No

---

STUDY SYSTEM: HLA-A*32:01
ASSAY METHOD TEXT: IEDB peptide-MHC binding, purified MHC/competitive/radioactivity; filed as Kd, often an IC50 or EC50 that approximates it; bounds were set here for any values at or beyond the usual limits of such assays
CONDITION: source organism: Mammarenavirus choriomeningitidis
pKd: −log10 of the molar value.
MEASURED ENDPOINT: pKd

-- ask What does the record list as pKd for "TTDVKAAVI" ?
-- reply ≤ 4.11

---

STUDY SYSTEM: HLA-A*02:01
ASSAY METHOD TEXT: IEDB peptide-MHC binding, purified MHC/competitive/fluorescence; filed as Kd, often an IC50 or EC50 that approximates it; bounds were set here for any values at or beyond the usual limits of such assays
CONDITION: source organism: Escherichia coli F11
pKd: −log10 of the molar value.
MEASURED ENDPOINT: pKd

-- ask Given the sequence "GSGDDTWLI" , what is its reported pKd?
-- reply ≤ 4.70

---

STUDY SYSTEM: HLA-B*08:01
ASSAY METHOD TEXT: IEDB peptide-MHC binding, purified MHC/direct/fluorescence; filed as Kd, often an IC50 or EC50 that approximates it; bounds were set here for any values at or beyond the usual limits of such assays
CONDITION: source organism: Escherichia coli O157:H7
MEASURED ENDPOINT: Kd (µM)
Number in µM, nothing else.

-- ask Can you look up the measured Kd of "LPEFERRTL" for me?
-- reply 4.22

---

STUDY SYSTEM: HLA-A*02:01
ASSAY METHOD TEXT: IEDB peptide-MHC binding, purified MHC/competitive/fluorescence; bounds were set here for any values at or beyond the usual limits of such assays
CONDITION: source organism: Mycobacterium tuberculosis
MEASURED ENDPOINT: pIC50
pIC50 is defined as minus the log10 of a concentration measured in mol/L.

SEQUENCE STRING: KLQERLAKL
MEASURED ENDPOINT: pIC50
NUMBER: 7.00

Next, consider the following sequence.
-- ask What pIC50 appears in the records for this sequence with HLA-A*02:01? "KLAGGVAVI"
-- reply 6.92

---

STUDY SYSTEM: HLA-B*45:01
ASSAY METHOD TEXT: IEDB peptide-MHC binding, purified MHC/competitive/radioactivity; filed as Kd, often an IC50 or EC50 that approximates it; bounds were set here for any values at or beyond the usual limits of such assays
CONDITION: source organism: Lassa virus Josiah
MEASURED ENDPOINT: Kd

-- ask Look up Kd for this sequence: "YDHALMSII"
-- reply ≥ 68.6 µM

---

STUDY SYSTEM: HLA-B*58:01
ASSAY METHOD TEXT: IEDB peptide-MHC binding, purified MHC/direct/fluorescence; filed as Kd, often an IC50 or EC50 that approximates it; bounds were set here for any values at or beyond the usual limits of such assays
CONDITION: source organism: Cryptosporidium hominis
MEASURED ENDPOINT: Kd (nM)
# output: bare number, implied unit nM

-- ask Any idea what its Kd is? The sequence is "MSFSDTFEM"
-- reply 0.6

---

Recorded measurements of IC50, one per entry
STUDY SYSTEM: HLA-B*08:01
ASSAY METHOD TEXT: IEDB peptide-MHC binding, purified MHC/competitive/fluorescence; bounds were set here for any values at or beyond the usual limits of such assays
CONDITION: source organism: Homo sapiens

SEQUENCE STRING: RQSSGSSSSGF
RESULT: ≥ 20 µM
//
SEQUENCE STRING: LVTMGTGTFGR
RESULT: ≥ 20 µM

-- ask Requested field: IC50. Item: "ELFARSSDPR"
-- reply ≥ 20 µM

---

STUDY SYSTEM: HLA-A*01:01
ASSAY METHOD TEXT: IEDB peptide-MHC binding, purified MHC/direct/fluorescence; filed as Kd, often an IC50 or EC50 that approximates it; bounds were set here for any values at or beyond the usual limits of such assays
CONDITION: source organism: Cowpox virus
MEASURED ENDPOINT: Kd

-- ask Find the recorded Kd belonging to "YKDANISMY" and report it.
-- reply ≥ 20 µM

---

STUDY SYSTEM: HLA-A*24:02
ASSAY METHOD TEXT: IEDB peptide-MHC binding, purified MHC/competitive/radioactivity; filed as Kd, often an IC50 or EC50 that approximates it; bounds were set here for any values at or beyond the usual limits of such assays
CONDITION: source organism: Mammarenavirus machupoense
pKd: −log10 of the molar value.
MEASURED ENDPOINT: pKd

SEQUENCE STRING: LCMLNNSLYY
pKd: ≤ 4.26

Here's the next entry for you.
-- ask # input sequence: "VGIPTHRHL" ; wanted: its pKd
-- reply ≤ 4.39

---

STUDY SYSTEM: HLA-A*29:02
ASSAY METHOD TEXT: IEDB peptide-MHC binding, purified MHC/competitive/radioactivity; filed as Kd, often an IC50 or EC50 that approximates it; bounds were set here for any values at or beyond the usual limits of such assays
CONDITION: source organism: Mammarenavirus brazilense
MEASURED ENDPOINT: Kd (nM)
Numbers only; they are read as nM.

-- ask Recorded Kd of "LLSEMLNKEY" , please.
-- reply 511

---

STUDY SYSTEM: HLA-B*51:01
ASSAY METHOD TEXT: IEDB peptide-MHC binding, purified MHC/direct/fluorescence; filed as Kd, often an IC50 or EC50 that approximates it; bounds were set here for any values at or beyond the usual limits of such assays
CONDITION: source organism: West Nile virus
MEASURED ENDPOINT: Kd (nM)
Just the number in nM, nothing appended.

-- ask // map "RVIDSRKSV" to recorded Kd (system: HLA-B*51:01)
-- reply 1600

---

STUDY SYSTEM: HLA-B*07:02
ASSAY METHOD TEXT: IEDB peptide-MHC binding, purified MHC/competitive/fluorescence; filed as Kd, often an IC50 or EC50 that approximates it; bounds were set here for any values at or beyond the usual limits of such assays
CONDITION: source organism: Ehrlichia chaffeensis
MEASURED ENDPOINT: Kd

-- ask Kd for "RVYKNYDPR" ?
-- reply ≥ 20 µM
